Data provenance is PubChem BioAssay AID1996.

Conditions: buffer; pH 7.4; 200.0 µM
# solubility kinetic >= 30 µg/mL gives label 1, anything below gives label 0

stdin: Would you say Cn1c(C(=O)O)ccc1S(=O)(=O)N1CCCCCC1 shows solubility kinetic at minimum 30 µg/mL?
stdout: label 1

stdin: Hi team, for COc1ccc(CNC(=O)COC(=O)c2cc3ccccc3cc2O)cc1OC , is the recorded solubility kinetic at or above 30 µg/mL?
stdout: label 0

stdin: In plain terms: is recorded solubility kinetic at least 30 µg/mL for OCCNc1c2ccccc2nc2ccccc12 ?
stdout: label 1

stdin: Record Nc1c([N+](=O)[O-])cc(-c2cnc[nH]2)cc1[N+](=O)[O-] ; criterion: solubility kinetic no lower than 30 µg/mL. Met?
stdout: label 0

stdin: Hi team, for CCN(CC)C1=C(Cl)C(=O)C(Cl)C12OCCO2 (configuration not stated) , is the recorded solubility kinetic at or above 30 µg/mL?
stdout: label 1

stdin: Please check the record CSc1ccc(Cl)c(C(=O)N2CCN(CC(=O)N3CCCC3)CC2)c1 and state if its solubility kinetic is at or above 30 µg/mL.
stdout: label 1

stdin: Is it the case that Cc1cccc(C(=O)OCC(=O)NCC2COc3ccccc3O2)c1 (configuration not stated) has solubility kinetic reaching or exceeding 30 µg/mL?
stdout: label 0

stdin: Could you tell me if the measured solubility kinetic of COc1nccc(C(F)(F)F)c1C(=O)Nc1ccc(Cl)cc1 reaches 30 µg/mL or more?
stdout: label 0

stdin: Has FC(F)(F)Oc1ccc(NC2=NCCCS2)cc1 a recorded solubility kinetic greater than or equal to 30 µg/mL?
stdout: label 1

stdin: Confirm if solubility kinetic reported for the compound COc1cc([N+](=O)[O-])ccc1NC(=O)NCCCN1CCCC1=O is 30 µg/mL or above.
stdout: label 1

stdin: Please check the record CCN1CCN(c2ccc(N)c(C)c2)CC1 and state if its solubility kinetic is at or above 30 µg/mL.
stdout: label 0

stdin: Is solubility kinetic for CCCC1C2C(=O)N(c3cccc(C)c3)C(=O)C2ON1c1ccccc1 (configuration not stated) at or above 30 µg/mL?
stdout: label 1

---

Conditions: buffer; pH 7.4; 200.0 µM
measuredAttribute: solubility kinetic (µg/mL)
Enter your answer as a number in µg/mL; do not include the unit.

stdin: Look up solubility kinetic: Cc1onc(-c2ccccc2)c1C(=O)N1CCCN2C(=O)c3ccccc3C21 (stereo unspecified)
stdout: 48.7

stdin: Any idea what solubility kinetic was measured for COCC(C)NC(=O)C(C)N1c2cccc3cccc(c23)S1(=O)=O (stereo unspecified) ?
stdout: 50.9

stdin: # lookup: solubility kinetic of O=C(NCCN1CCOCC1)C1CC(=O)N(c2ccc(F)cc2)C1 (stereo unspecified)
stdout: 48.8

stdin: Fill in the blank: the reported solubility kinetic of C#CCN1CCN(c2ccc(F)cc2)CC1 is ____.
stdout: 30

---

Settings: buffer; pH 7.4; 200.0 µM
Threshold rule: solubility kinetic greater than or equal to 40 µg/mL is Criterion met; below that, Criterion not met.

stdin: Confirm if solubility kinetic reported for the compound COc1ccc(OC)c(CCNC(=O)CCc2cn(C)c3ccccc23)c1 is 40 µg/mL or above.
stdout: Criterion not met

stdin: Would you say CC(=O)c1ccc(OCCCC(=O)Nc2cccc(S(=O)(=O)N3CCOCC3)c2)cc1 shows solubility kinetic at minimum 40 µg/mL?
stdout: Criterion met

stdin: Given Cc1nc2ccccc2c(=O)n1CCc1ccc(O)cc1 , state whether its solubility kinetic is at least 40 µg/mL.
stdout: Criterion met

stdin: Decide: solubility kinetic of CC1CCN(S(=O)(=O)c2cccc3cccnc23)CC1 >= 40 µg/mL?
stdout: Criterion met

stdin: Check if solubility kinetic >= 40 µg/mL (inclusive). Item: CCN(CC)Cc1cc(O)c(CN(CC)CC)cc1O
stdout: Criterion met

stdin: Answer whether solubility kinetic of Cc1ccc(S(=O)(=O)N2CCCCC2)cc1NC(=O)C1CCC1 is greater than or equal to 40 µg/mL.
stdout: Criterion not met

stdin: Decide: is the reported value of solubility kinetic for C/C(=N\NC(=O)c1cccnc1)c1cccc([N+](=O)[O-])c1 equal to or greater than 40 µg/mL?
stdout: Criterion met

stdin: Is it the case that Cc1cc(C)c(S(=O)(=O)c2cccc(Cl)c2)c(=O)[nH]1 has solubility kinetic reaching or exceeding 40 µg/mL?
stdout: Criterion met

stdin: hey, is solubility kinetic for this one >= 40 µg/mL? Cc1ccc(NC(=O)c2ccco2)c(NC(=O)c2ccccc2)c1
stdout: Criterion not met

stdin: Check if solubility kinetic >= 40 µg/mL (inclusive). Item: CC(NC(=S)Nc1ccccc1)C(c1cccs1)N1CCOCC1 (stereo not given)
stdout: Criterion not met

stdin: Does Cc1ccc(C(=O)O/N=C(\N)Cc2ccc([N+](=O)[O-])cc2)c(Cl)c1 have a reported solubility kinetic of at least 40 µg/mL?
stdout: Criterion not met

stdin: Hello, I need to know if O=C(NCCc1ccc2c(c1)OCCO2)c1ccccn1 has measured solubility kinetic not below 40 µg/mL. Thanks!
stdout: Criterion met

stdin: Say whether CN(C)S(=O)(=O)Nc1cccc(-c2cn3c(n2)SCC3)c1 shows solubility kinetic of 40 µg/mL or more.
stdout: Criterion met

stdin: // inclusive: solubility kinetic at least 40 µg/mL? input: O=C(CCN1C(=O)C2C3CCC(C3)C2C1=O)Nc1ccc(F)cc1 (stereo not given)
stdout: Criterion not met

stdin: Test whether the compound NS(=O)(=O)c1ccc(NC(=O)CSc2ncccn2)cc1 records solubility kinetic of 40 µg/mL or higher.
stdout: Criterion met

stdin: Determine whether this compound has solubility kinetic no lower than 40 µg/mL: COc1cc(C)c(Cl)cc1S(=O)(=O)N1CCSC1
stdout: Criterion not met

stdin: Please indicate if the recorded solubility kinetic for O=C(COC(=O)c1cc(Cl)nc(Cl)c1)NC1CCCCCC1 meets or exceeds 40 µg/mL.
stdout: Criterion not met

stdin: Evaluate COc1ccc2[nH]c3c(NCCCOC(C)C)ncnc3c2c1 : solubility kinetic at minimum 40 µg/mL?
stdout: Criterion met

stdin: Does the reported solubility kinetic for Cc1ccnc(NC(=O)c2cc3ccccc3o2)c1 fall at or above the 40 µg/mL mark?
stdout: Criterion not met

stdin: Threshold query (solubility kinetic >= 40 µg/mL) on CCOCCn1c2ccccc2c2nc3ccccc3nc21
stdout: Criterion not met

stdin: Hello, I need to know if O=C(c1c(F)cccc1F)N1CCCc2ccccc21 has measured solubility kinetic not below 40 µg/mL. Thanks!
stdout: Criterion met

---

Details: buffer; pH 7.4; 200.0 µM
Please provide measured solubility kinetic for the entries that follow.

stdin: Field request: solubility kinetic | item: O=C(COc1cc(Cl)ccc1Cl)Nc1ccc2[nH]c(=O)[nH]c2c1
stdout: 2.7 µg/mL

stdin: Report solubility kinetic for O=C(Nc1ccc2ccccc2c1)c1ccc(Cl)cc1 please.
stdout: < 0.6 µg/mL

stdin: Query (compound): O=C(Nc1ccccc1)Nc1sccc1-c1nc2ccccc2s1 ; field requested: solubility kinetic
stdout: 3.8 µg/mL

stdin: Fill in: solubility kinetic of CCOc1ccccc1NC(=O)COC(=O)CN1C(=O)NC(C)(C)C1=O is ___
stdout: > 54.5 µg/mL

stdin: Which solubility kinetic value belongs to Cc1ccc(NC(=O)CSc2nnc(/N=C/N(C)C)s2)cc1 ?
stdout: > 50.3 µg/mL

stdin: Give the measured solubility kinetic of N#CCCN(Cc1ccccc1)S(=O)(=O)c1cccs1 .
stdout: > 46 µg/mL

stdin: Using the record for CCOC(=O)N1CCN(CCC(=O)Nc2ccc(F)c(F)c2)CC1 , report its solubility kinetic.
stdout: > 51.2 µg/mL

stdin: Item under review: O=C(NC(=S)N1CCCCC1CO)c1cccs1 (configuration not stated) . Reported solubility kinetic?
stdout: > 42.7 µg/mL

stdin: // lookup solubility kinetic for Cc1ccc(N2CC(C(=O)N3CCOCC3)CC2=O)cc1Cl (configuration not stated)
stdout: > 48.4 µg/mL

stdin: Value lookup for solubility kinetic; key = CCOC(=O)c1c(N)sc(C(=O)N(CC)CC)c1C
stdout: > 42.7 µg/mL

stdin: So what does the record say about solubility kinetic for COn1c(-c2ccc(C)cc2)nc2ncccc21 ?
stdout: > 35.9 µg/mL

stdin: GET /values?readout=solubility kinetic&item= CCNC(=S)Nc1ccc(OC(F)(F)F)cc1
stdout: > 39.6 µg/mL

---

Assign solubility kinetic to each entry below.
Details: buffer; pH 7.4; 200.0 µM
# number only, unit µg/mL dropped from output

stdin: Item Cc1cccc(NC(=O)[C@@H]2CCCN2C(=O)OC(C)(C)C)c1C has what recorded solubility kinetic?
stdout: 39.6

stdin: For the compound shown here, O=c1cc(-c2ccccc2)nc(SCCOc2ccccc2Cl)[nH]1 , give the reported solubility kinetic.
stdout: 0.4

stdin: Item under review: O=S(=O)(/C=C/c1cccc(Br)c1)N1CCOCC1 . Reported solubility kinetic?
stdout: 40

---

Consider the following molecules; for each one, report its solubility kinetic.
Settings: buffer; pH 7.4; 200.0 µM

stdin: // query solubility kinetic value for entry O=C(O)c1cccc2c1C(=O)N(CC1CCCO1)C2 (stereo unspecified)
stdout: > 39.2 µg/mL

stdin: So what does the record say about solubility kinetic for Nc1nc2c(ncn2C2C[C@H](O)[C@@H](CO)O2)c(=O)[nH]1 (stereo partly specified) ?
stdout: > 40.1 µg/mL

stdin: solubility kinetic lookup needed for O=C(O)CSCC(=O)N1CCCCC1 , thanks.
stdout: > 32.6 µg/mL

stdin: Endpoint output: solubility kinetic of Cc1nc2cc(NC(=O)NCCCO)ccc2o1 . Value?
stdout: > 37.4 µg/mL

stdin: Suppose we examine the molecule O=C1c2ccccc2C(=O)N1c1cccc2ccccc12 ; what solubility kinetic value has been reported?
stdout: 13.7 µg/mL

stdin: What measured solubility kinetic goes with COc1ccc(-n2cnc3ccccc3c2=O)c([N+](=O)[O-])c1 ?
stdout: > 44.6 µg/mL
